Reference for the values: ChEMBL document CHEMBL2203153

# test_system: Tyrosinase (Agaricus bisporus)
# test_summary: Inhibition of mushroom tyrosinase using L-tyrosine as substrate at 50 uM after 30 mins by spectrophotometric analysis
So I've got a bunch of compounds here, and I need their inhibition values.
Answers are plain numbers, in %.

Worked set:
COc1cc(/N=N/c2ccc(O)cc2OC)cc(OC)c1 = 8.9
Oc1cc(O)cc(/N=N/c2ccc(O)cc2O)c1 = 41.5
COc1ccc(OC)c(/N=N/c2ccc(O)cc2O)c1 = 27.8
Oc1ccc(/N=N/c2cc(O)cc(O)c2)cc1 = 72.8
COc1ccc(OC)c(/N=N/c2ccc(O)c(OC)c2)c1 = 0.44
COc1ccc(/N=N/c2cc(OC)ccc2OC)c(O)c1 = 6.38

Could you tell me inhibition for each of these compounds? They are listed below.
1. COc1cc(/N=N/c2ccc(O)cc2O)cc(OC)c1
2. COc1cc(/N=N/c2ccc(O)cc2)cc(OC)c1
3. COc1cc(/N=N/c2ccc(O)c(OC)c2)cc(OC)c1

1. 48.5
2. 56.2
3. 1.03

====

So I've got a bunch of compounds here, and I need their pIC50 values.
Sequence of the target: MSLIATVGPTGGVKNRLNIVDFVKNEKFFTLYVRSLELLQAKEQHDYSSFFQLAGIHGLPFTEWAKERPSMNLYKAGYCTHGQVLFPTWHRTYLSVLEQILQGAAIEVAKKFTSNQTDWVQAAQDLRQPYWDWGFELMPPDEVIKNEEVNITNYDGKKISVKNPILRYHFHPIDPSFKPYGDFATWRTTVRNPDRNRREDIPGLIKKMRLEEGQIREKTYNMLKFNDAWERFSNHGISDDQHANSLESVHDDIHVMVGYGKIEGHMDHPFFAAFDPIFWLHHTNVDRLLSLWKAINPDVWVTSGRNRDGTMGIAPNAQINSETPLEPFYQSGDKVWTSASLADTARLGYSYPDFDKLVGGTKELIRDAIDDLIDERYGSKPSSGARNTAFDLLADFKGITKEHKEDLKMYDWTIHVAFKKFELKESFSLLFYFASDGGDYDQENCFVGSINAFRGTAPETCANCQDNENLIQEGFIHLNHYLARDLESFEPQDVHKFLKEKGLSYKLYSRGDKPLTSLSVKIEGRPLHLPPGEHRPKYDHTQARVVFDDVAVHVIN
One number for each entry, as −log10 of the molar value.

COc1cc(/N=N/c2ccc(O)cc2)cc(OC)c1 = 4.30

// next item, pIC50 requested
Please look up its pIC50: Oc1ccc(/C=C/c2cc(O)cc(O)c2)cc1
4.57
